Origin of the recorded values: patent US10813933B2

# system-under-test: EGFR exon 19 deletion mutant (del19) expressing Ba/F3 cells (Homo sapiens, UniProt P00533, DEL746-750, cells depend on it)
# Sequence (P00533 with tags, fused parts or gaps DEL746-750): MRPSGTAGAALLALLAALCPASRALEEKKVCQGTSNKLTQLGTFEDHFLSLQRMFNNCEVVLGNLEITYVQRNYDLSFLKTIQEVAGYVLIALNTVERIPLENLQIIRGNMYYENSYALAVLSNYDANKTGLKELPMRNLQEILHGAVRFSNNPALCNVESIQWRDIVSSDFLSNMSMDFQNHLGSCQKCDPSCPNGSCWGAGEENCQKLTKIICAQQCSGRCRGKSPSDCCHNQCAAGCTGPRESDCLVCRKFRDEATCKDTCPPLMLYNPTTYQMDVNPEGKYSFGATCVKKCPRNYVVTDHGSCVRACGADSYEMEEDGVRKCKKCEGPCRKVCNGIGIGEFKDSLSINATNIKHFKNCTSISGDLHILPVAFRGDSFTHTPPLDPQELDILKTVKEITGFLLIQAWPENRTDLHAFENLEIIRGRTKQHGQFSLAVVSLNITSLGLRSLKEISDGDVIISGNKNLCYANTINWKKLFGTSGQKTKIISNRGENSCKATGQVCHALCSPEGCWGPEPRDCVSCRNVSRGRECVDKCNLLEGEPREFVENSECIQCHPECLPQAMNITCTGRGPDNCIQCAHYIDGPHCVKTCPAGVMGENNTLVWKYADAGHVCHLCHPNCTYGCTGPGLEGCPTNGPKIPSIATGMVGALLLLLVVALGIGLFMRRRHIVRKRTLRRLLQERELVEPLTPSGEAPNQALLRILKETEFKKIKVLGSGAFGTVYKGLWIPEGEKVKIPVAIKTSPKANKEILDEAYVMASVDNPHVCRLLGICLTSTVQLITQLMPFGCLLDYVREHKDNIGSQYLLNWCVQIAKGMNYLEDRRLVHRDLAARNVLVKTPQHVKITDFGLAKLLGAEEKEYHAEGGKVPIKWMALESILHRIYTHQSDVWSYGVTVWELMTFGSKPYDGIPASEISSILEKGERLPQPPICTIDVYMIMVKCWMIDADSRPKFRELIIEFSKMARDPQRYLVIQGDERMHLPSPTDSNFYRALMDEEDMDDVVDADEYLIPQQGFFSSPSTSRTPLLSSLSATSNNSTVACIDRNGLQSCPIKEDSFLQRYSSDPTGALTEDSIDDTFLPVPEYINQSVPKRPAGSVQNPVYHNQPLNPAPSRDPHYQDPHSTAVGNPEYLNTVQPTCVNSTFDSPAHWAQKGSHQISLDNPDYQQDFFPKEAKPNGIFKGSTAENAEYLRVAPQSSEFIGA
# assay-overview: CellTiter-Glo cell viability, Ba/F3 EGFR mutant
# details: read-out: IC50 (nM) Del19; Table 4, ALK inhibitors
Provide the reported GI50 of each item.
One number for each entry, in nM.

{"compound-smiles": "COc1cc(N2CCC(N3CCN(C)CC3)CC2)ccc1Nc1ncnc(Nc2ccccc2S(=O)(=O)C(C)C)n1", "reported-value": 450}

Parameters: items (list). Returns: GI50 for each item.
1. Cc1cc(Nc2ncc(Cl)c(Nc3ccccc3S(=O)(=O)C(C)C)n2)c(OC(C)C)cc1C1CCNCC1
2. COc1cc(N2CCC(N)CC2)ccc1Nc1ncc(Cl)c(-c2c[nH]c3ccccc23)n1
3. COc1cc(N2CCC(N(C)C)CC2)ccc1Nc1ncc(Cl)c(Nc2ccccc2P(C)(C)=O)n1

Result:
[524, 90, 36.9]

* * *

Provide the reported GI50 of each item.
# system-under-test: EGFR T790M/L858R mutant expressing Ba/F3 cells (Homo sapiens, UniProt P00533, T790M/L858R, cells depend on it)
# Sequence (P00533 whole entry T790M/L858R): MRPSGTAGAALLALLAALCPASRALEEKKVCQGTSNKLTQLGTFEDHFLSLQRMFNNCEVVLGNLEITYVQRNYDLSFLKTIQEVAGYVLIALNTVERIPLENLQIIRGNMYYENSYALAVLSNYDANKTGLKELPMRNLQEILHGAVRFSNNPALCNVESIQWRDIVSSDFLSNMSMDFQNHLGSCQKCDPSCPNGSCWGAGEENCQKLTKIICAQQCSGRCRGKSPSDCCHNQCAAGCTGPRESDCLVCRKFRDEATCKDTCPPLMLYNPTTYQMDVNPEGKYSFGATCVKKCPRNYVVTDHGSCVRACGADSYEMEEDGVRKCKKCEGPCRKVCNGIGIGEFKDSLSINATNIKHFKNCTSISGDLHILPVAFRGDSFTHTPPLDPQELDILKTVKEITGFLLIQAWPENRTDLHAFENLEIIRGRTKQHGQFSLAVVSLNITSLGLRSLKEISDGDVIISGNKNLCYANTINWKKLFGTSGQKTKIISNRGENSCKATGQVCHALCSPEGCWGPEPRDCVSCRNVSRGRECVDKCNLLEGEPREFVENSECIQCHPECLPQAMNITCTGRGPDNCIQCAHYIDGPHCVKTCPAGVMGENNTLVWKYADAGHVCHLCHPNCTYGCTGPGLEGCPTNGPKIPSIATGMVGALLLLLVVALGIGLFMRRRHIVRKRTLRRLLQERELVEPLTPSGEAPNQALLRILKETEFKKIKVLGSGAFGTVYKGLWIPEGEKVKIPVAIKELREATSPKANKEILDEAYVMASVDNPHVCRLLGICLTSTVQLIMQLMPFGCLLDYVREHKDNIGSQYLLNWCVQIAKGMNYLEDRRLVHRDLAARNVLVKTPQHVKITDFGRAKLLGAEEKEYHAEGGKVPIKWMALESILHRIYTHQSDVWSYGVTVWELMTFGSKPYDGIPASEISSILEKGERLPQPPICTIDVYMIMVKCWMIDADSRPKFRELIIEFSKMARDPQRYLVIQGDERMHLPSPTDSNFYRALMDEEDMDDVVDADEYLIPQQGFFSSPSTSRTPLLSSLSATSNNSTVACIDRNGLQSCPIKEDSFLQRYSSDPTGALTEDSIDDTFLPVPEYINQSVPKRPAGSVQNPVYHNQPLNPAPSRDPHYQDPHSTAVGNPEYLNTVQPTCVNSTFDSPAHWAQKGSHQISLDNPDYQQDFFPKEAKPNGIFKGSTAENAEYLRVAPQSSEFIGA
# assay-overview: CellTiter-Glo cell viability, Ba/F3 EGFR mutant
# Assay type: cell-based, mouse
# details: Table 5, ALK inhibitors, read-out: IC50 (nM) T/L
Numbers only, in nM.

Parameters: items (list). Returns: GI50 for each item.
1. Cc1cc(Nc2ncc(Cl)c(Nc3ccccc3S(=O)(=O)C(C)C)n2)c(OC(C)C)cc1C1CCNCC1 [ceritinib]
2. COc1cc(N2CCC(N(C)C)CC2)ccc1Nc1ncc(Cl)c(Nc2ccccc2P(C)(C)=O)n1 [AP26113-analogue, AP26113-analog]
3. COc1cc(N2CCC(N3CCN(C)CC3)CC2)ccc1Nc1ncnc(Nc2ccccc2S(=O)(=O)C(C)C)n1 [ASP3026]
4. COc1cc(N2CCC(N)CC2)ccc1Nc1ncc(Cl)c(-c2c[nH]c3ccccc23)n1 [AZD3463]

Result:
685
36
1690
184

* * *

Provide the reported GI50 of each item.
# system-under-test: EGFR L858R mutant expressing Ba/F3 cells (Homo sapiens, UniProt P00533, L858R, cells depend on it)
# Sequence (P00533 whole entry L858R): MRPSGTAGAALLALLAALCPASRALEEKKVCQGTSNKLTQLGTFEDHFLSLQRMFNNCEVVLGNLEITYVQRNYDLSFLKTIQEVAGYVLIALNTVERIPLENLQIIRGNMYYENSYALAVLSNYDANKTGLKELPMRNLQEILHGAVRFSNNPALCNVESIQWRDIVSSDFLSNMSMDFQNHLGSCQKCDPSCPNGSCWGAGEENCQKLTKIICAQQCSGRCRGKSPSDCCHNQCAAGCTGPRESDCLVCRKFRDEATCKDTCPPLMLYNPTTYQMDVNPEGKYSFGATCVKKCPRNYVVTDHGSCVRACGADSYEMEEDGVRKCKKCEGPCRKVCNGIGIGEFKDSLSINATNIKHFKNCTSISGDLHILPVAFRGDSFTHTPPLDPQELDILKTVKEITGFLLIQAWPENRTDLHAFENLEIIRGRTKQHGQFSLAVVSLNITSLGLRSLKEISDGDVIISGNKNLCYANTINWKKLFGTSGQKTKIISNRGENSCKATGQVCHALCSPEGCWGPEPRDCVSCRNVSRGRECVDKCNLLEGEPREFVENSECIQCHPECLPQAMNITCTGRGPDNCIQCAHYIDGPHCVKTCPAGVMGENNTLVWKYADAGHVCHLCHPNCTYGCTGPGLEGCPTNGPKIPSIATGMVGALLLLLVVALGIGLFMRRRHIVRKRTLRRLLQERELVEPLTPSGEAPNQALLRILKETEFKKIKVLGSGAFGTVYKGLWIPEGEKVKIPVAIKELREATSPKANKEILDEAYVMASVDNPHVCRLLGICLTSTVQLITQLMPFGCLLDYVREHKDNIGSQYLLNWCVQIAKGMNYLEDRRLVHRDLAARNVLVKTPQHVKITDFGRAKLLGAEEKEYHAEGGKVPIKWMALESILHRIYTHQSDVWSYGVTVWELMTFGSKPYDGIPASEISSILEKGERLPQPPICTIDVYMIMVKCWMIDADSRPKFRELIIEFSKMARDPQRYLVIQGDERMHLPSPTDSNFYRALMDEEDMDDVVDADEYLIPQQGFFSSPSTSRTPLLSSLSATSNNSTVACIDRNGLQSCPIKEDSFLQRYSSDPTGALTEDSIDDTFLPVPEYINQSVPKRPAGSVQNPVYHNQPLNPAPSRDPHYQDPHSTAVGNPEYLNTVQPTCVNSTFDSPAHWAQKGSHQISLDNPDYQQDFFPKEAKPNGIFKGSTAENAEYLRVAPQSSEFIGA
# assay-overview: CellTiter-Glo cell viability, Ba/F3 EGFR mutant
# Format: cell-based, mouse
# details: Table 5, ALK inhibitors; read-out: IC50 (nM) L858R
Numbers only, in nM.

{"compound-smiles": "COc1cc(N2CCC(N3CCN(C)CC3)CC2)ccc1Nc1ncnc(Nc2ccccc2S(=O)(=O)C(C)C)n1", "parameter-measured": "GI50", "reported-value": 948}

Parameters: items (list). Returns: GI50 for each item.
1. COc1cc(N2CCC(N)CC2)ccc1Nc1ncc(Cl)c(-c2c[nH]c3ccccc23)n1
2. COc1cc(N2CCC(N(C)C)CC2)ccc1Nc1ncc(Cl)c(Nc2ccccc2P(C)(C)=O)n1
3. Cc1cc(Nc2ncc(Cl)c(Nc3ccccc3S(=O)(=O)C(C)C)n2)c(OC(C)C)cc1C1CCNCC1

Result:
[287, 92.1, 1160]
